Molecular target: GLP-1R (Homo sapiens)
Assay: EC20 GLP-1(9-36) PAM cAMP Assay: dose response of compound in the presence of fixed concentration of GLP-1(9-36)
Settings: GLP-1R CRE-bla CHO-K1 cells, in presence of fixed concentration of GLP-1(9-36), 30 min at 37° C.
Each entry below carries its recorded EC50.

molecule	EC50
CCCC1CCC(C2CC=C(c3cnc(-c4ccc(C[C@H](NC(=O)c5ccc(C(C)(C)C)s5)C(=O)N5C6CCC5C(C(=O)O)C6)cc4)nc3)CC2)CC1 (some centres unmarked)	500 to 2500 nM
CCCC1CCC(C2CC=C(c3cnc(-c4ccc(C[C@H](NC(=O)c5cnn(C(C)(C)C)c5)C(=O)N5CC(C(=O)O)C5)cc4)nc3)CC2)CC1 (some centres unmarked)	500 to 2500 nM
CCc1ccc(C(=O)N[C@@H](Cc2ccc(-c3ncc(C4=CCC([C@H]5CC[C@H](C)CC5)CC4)cn3)cc2)C(=O)N2CC(C(=O)O)C2)s1 (some centres unmarked)	< 500 nM
CCc1ccc(C(=O)N[C@@H](Cc2ccc(-c3ncc(C4=CCC([C@H]5CC[C@H](CC)CC5)CC4)cn3)cc2)C(=O)N2CC(C(=O)O)C2)s1 (some centres unmarked)	< 500 nM
CC[C@H]1CC[C@H](C2CC=C(c3cnc(-c4ccc(C[C@H](NC(=O)c5ccc(C(C)(C)C)s5)C(=O)N[C@H](C)C(=O)O)cc4)nc3)CC2)CC1 (some centres unmarked)	< 500 nM

// sample CCCC1CCC(C2CC=C(c3cnc(-c4ccc(C[C@H](NC(=O)c5ccc(C(C)(C)C)s5)C(=O)N5CC[C@H](C(=O)O)C5)cc4)nc3)CC2)CC1 (some centres unmarked) , its EC50 was < 500 nM

// sample `C[C@@H](NC(=O)[C@H](Cc1ccc(-c2ncc(C3=CCC4(CC3)OCCO4)cn2)cc1)NC(=O)c1ccc(C(C)(C)C)s1)C(=O)O` , its EC50 was 2500 to 5000 nM

// sample CC(C)(C)c1ccc(C(=O)N[C@@H](Cc2ccc(-c3ncc(C4=CCC([C@H]5CC[C@H](C)CC5)CC4)cn3)cc2)C(=O)O)s1 (mixture of isomers) , its EC50 was < 500 nM

// sample CC[C@H]1CC[C@H](C2CC=C(c3cnc(-c4ccc(C[C@H](NC(=O)c5ccc(C(C)(C)C)s5)C(=O)NCC5CCNC5)cc4)nc3)CC2)CC1 (some centres unmarked) , its EC50 was 500 to 2500 nM

// sample CC(C)(C)c1ccc(C(=O)N[C@@H](Cc2ccc(-c3ncc(C4=CCC([C@H]5CC[C@H](C)CC5)CC4)cn3)cc2)C(=O)N2CC[C@H](C(=O)O)C2)s1 (some centres unmarked) , its EC50 was < 500 nM

// sample CC[C@H]1CC[C@H](C2CC=C(c3cnc(-c4ccc(C[C@H](NC(=O)c5ccc(C(C)(C)C)s5)C(=O)NS(C)(=O)=O)cc4)nc3)CC2)CC1 (mixture of isomers) , its EC50 was < 500 nM

###

Biological target: GLP-1R (Homo sapiens)
Assay: EC20 GLP-1(9-36) PAM cAMP Assay: dose response of compound in the presence of fixed concentration of GLP-1(9-36)
Conditions: GLP-1R CRE-bla CHO-K1 cells, in presence of fixed concentration of GLP-1(9-36), 30 min at 37° C.
pEC50: −log10 of the molar value.
assay-readout: pEC50

// worked examples, pEC50 included
compound	recorded-measurement
CC[C@H]1CC[C@H](C2CC=C(c3cnc(-c4ccc(C[C@H](NC(=O)c5ccc(C6CC6)s5)C(=O)N5CC(C(=O)O)C5)cc4)nc3)CC2)CC1 (stereo partly drawn)	> 6.30
C[C@@H](NC(=O)[C@H](Cc1ccc(-c2ncc(C3=CCCC3)cn2)cc1)NC(=O)c1ccc(C(C)(C)C)s1)C(=O)O	5.60 to 6.30
CCCC1CCC(C2CC=C(c3cnc(-c4ccc(C[C@H](NC(=O)c5ccc(CC)s5)C(=O)N5CC(C(=O)O)C5)cc4)nc3)CC2)CC1 (stereo partly drawn)	> 6.30
CCCC1CCC(C2CCC(c3cnc(-c4ccc(C[C@H](NC(=O)c5ccc(C(C)(C)C)nc5)C(=O)N5CC(C(=O)O)C5)cc4)nc3)CC2)CC1 (stereo partly drawn)	5.00 to 5.30

// sample CCCC1CCC(C2CC=C(c3cnc(-c4ccc(C[C@H](NC(=O)c5ccc(C(C)(C)C)s5)C(=O)N[C@H](C(=O)O)C(C)C)cc4)nc3)CC2)CC1 (stereo partly drawn) , its pEC50 was 5.60 to 6.30

// sample CCCCCC1CC=C(c2cnc(-c3ccc(C[C@H](NC(=O)c4ccc(C(C)(C)C)s4)C(=O)N4CC(C(=O)O)C4)cc3)nc2)CC1 (stereo partly drawn) , its pEC50 was 5.60 to 6.30

// sample C[C@@H](NC(=O)[C@H](Cc1ccc(-c2ncc(C3=CCC([C@H]4CC[C@H](C)CC4)CC3)cn2)cc1)NC(=O)c1ccc(C(C)(C)C)s1)C(=O)O (stereo partly drawn) , its pEC50 was > 6.30

// sample CCCc1ccc(C2CC=C(c3cnc(-c4ccc(C[C@H](NC(=O)c5ccc(C(C)(C)C)s5)C(=O)N5CC(C(=O)O)C5)cc4)nc3)CC2)cc1 (stereo partly drawn) , its pEC50 was > 6.30

// sample COC(=O)C1CC=C(c2cnc(-c3ccc(C[C@H](NC(=O)c4ccc(C(C)(C)C)s4)C(=O)N[C@H](C)C(=O)O)cc3)nc2)CC1 (stereo partly drawn) , its pEC50 was > 6.30

// sample CCCC1CCC(C2CC=C(c3cnc(-c4ccc(C[C@H](NC(=O)c5ccc(C(C)C)cc5)C(=O)N5CC(C(=O)O)C5)cc4)nc3)CC2)CC1 (stereo partly drawn) , its pEC50 was > 6.30

// sample CCC[C@H]1CC[C@H](C2CC=C(c3cnc(-c4ccc(C[C@H](NC(=O)c5ccc(C(C)(C)C)s5)C(=O)N5CC(C(=O)O)C5)cc4)nc3)C(C)C2)CC1 (stereo partly drawn) , its pEC50 was > 6.30

// sample CCCC1CC=C(c2cnc(-c3ccc(C[C@H](NC(=O)c4ccc(C(C)(C)C)s4)C(=O)N4CC(C(=O)O)C4)cc3)nc2)CC1 (stereo partly drawn) , its pEC50 was 5.60 to 6.30

###

Each entry below carries its recorded EC50.
Target: GLP-1R (Homo sapiens, UniProt P43220)
Sequence (P43220 24-463): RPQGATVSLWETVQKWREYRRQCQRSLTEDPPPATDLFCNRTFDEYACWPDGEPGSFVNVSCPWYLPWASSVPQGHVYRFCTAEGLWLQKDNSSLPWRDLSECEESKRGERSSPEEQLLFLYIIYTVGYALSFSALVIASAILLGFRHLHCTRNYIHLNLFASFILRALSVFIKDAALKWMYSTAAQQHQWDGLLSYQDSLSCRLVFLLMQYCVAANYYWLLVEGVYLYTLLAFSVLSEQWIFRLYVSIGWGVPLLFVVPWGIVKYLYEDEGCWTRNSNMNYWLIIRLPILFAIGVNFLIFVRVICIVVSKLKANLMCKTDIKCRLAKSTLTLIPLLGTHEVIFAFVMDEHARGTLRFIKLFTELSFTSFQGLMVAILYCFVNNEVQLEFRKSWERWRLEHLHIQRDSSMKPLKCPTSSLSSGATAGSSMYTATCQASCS
Sequence (P01275 100-127 partner limits assumed): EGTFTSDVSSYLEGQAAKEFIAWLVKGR
Assay: EC20 GLP-1(9-36) PAM cAMP Assay: dose response of compound in the presence of fixed concentration of GLP-1(9-36)
Conditions: GLP-1R CRE-bla CHO-K1 cells, in presence of fixed concentration of GLP-1(9-36), 30 min at 37° C.

// worked examples, EC50 included
compound	EC50
CCCC1CCC(C2CCC(c3cnc(-c4ccc(C[C@H](NC(=O)c5ccc(C(C)(C)C)s5)C(=O)N[C@H](C)C(=O)O)cc4)nc3)CC2)CC1 (stereo partly drawn)	< 500 nM
CCCCCC1CC=C(c2cnc(-c3ccc(C[C@H](NC(=O)c4ccc(C(C)(C)C)s4)C(=O)N[C@H](C)C(=O)O)cc3)nc2)CC1 (stereo partly drawn)	500 to 2500 nM

// sample CCCCC1CC=C(c2cnc(-c3ccc(C[C@H](NC(=O)c4ccc(C(C)(C)C)s4)C(=O)N4CC(C(=O)O)C4)cc3)nc2)CC1 (stereo partly drawn) , its EC50 was 500 to 2500 nM

// sample CCCC1CCC(C2CC=C(c3cnc(-c4ccc(C[C@H](NC(=O)c5ccc(CC)cc5)C(=O)N5CC(C(=O)O)C5)cc4)nc3)CC2)CC1 (stereo partly drawn) , its EC50 was < 500 nM

// sample CC1(C)CCC(C2CC=C(c3cnc(-c4ccc(C[C@H](NC(=O)c5ccc(C(C)(C)C)s5)C(=O)O)cc4)nc3)CC2)CC1 (stereo partly drawn) , its EC50 was 500 to 2500 nM

// sample CC[C@H]1CC[C@H](C2CC=C(c3cnc(-c4ccc(C[C@H](NC(=O)c5ccc(C(F)(F)F)s5)C(=O)N5CC(C(=O)O)C5)cc4)nc3)CC2)CC1 (stereo partly drawn) , its EC50 was < 500 nM

###

Biological target: GLP-1R (Homo sapiens)
Test: EC20 GLP-1(9-36) PAM cAMP Assay: dose response of compound in the presence of fixed concentration of GLP-1(9-36)
Details: GLP-1R CRE-bla CHO-K1 cells, in presence of fixed concentration of GLP-1(9-36), 30 min at 37° C.
assay-readout: EC50

compound	EC50
CCCC1CCC(C2CC=C(c3cnc(-c4ccc(C[C@H](NC(=O)c5ccc(C(C)(C)C)s5)C(=O)NCCC(=O)O)cc4)nc3)CC2)CC1 (stereo partly drawn) [Compound 71]	< 500 nM
CCCC1CCC(C2CC=C(c3cnc(-c4ccc(C[C@H](NC(=O)c5ccc(C6(C)CC6)cc5)C(=O)N5CC(C(=O)O)C5)cc4)nc3)CC2)CC1 (stereo partly drawn) [Compound 26]	< 500 nM

Please examine the following record next.
// sample CC[C@H]1CC[C@H](C2CC=C(c3cnc(-c4ccc(C[C@H](NC(=O)c5ccccc5)C(=O)N5CC(C(=O)O)C5)cc4)nc3)CC2)CC1 (stereo partly drawn) [Compound 99] , its EC50 was 500 to 2500 nM
